Target: UniProtKB P25090
Sequence (P25090 whole entry): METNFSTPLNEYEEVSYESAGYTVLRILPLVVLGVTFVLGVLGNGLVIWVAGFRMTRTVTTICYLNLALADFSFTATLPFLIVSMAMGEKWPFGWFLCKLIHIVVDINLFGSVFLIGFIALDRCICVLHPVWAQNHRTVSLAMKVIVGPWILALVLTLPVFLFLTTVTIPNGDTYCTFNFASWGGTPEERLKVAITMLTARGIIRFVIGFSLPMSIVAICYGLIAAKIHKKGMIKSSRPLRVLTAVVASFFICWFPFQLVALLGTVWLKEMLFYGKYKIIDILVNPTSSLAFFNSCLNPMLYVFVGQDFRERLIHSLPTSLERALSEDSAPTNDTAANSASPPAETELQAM
Assay: FPR2 cyclic adenosine monophosphate (cAMP) assay
Format: cell-based
Details: CHO cells overexpressing human FPR2; forskolin 5 µM; inhibition of cAMP production; read-out: hFPR2 cAMP2 EC50
Procedure: N-formyl peptide receptors (FPRs) are a family of chemo attractant receptors that facilitate leukocyte response during inflammation. FPRs belong to the seven-transmembrane G protein-coupled receptor superfamily and are linked to inhibitory G-proteins (Gi). […] FPR2 and FPR1 Cyclic Adenosine Monophosphate (cAMP) Assays. […] The level of intracellular cAMP was determined using the HTRF HiRange cAMP assay reagent kit (Cisbio) according to manufacturer’s instruction. […]
Measured quantity: EC50 (nM)

(1) COc1cc(F)c([C@@H]2CN(c3nc(N4CC(C)OCC4=O)ccc3F)C(=O)[C@H]2NC(=O)c2ccc(OC(F)(F)F)cc2)c(F)c1 (stereo partly drawn) [Example 124]
(2) COCCn1ccnc1N1C[C@@H](c2c(F)cc(OC)cc2F)[C@H](NC(=O)c2ccc(OC(F)(F)F)cc2)C1=O [Example 652]
Query: Form: Entry with minimum EC50 (choose one): 1 / 2 Answer by quoting the chosen item's label.
Response: 1
